Test: Evaluation of pharmacokinetic parameters for metronidazole following topical administration of 7.5 mg of metronidazole (1 g metronidazole topical lotion) for 4 days to the faces of 8 patients.
Format: ADME, organism-based
Parameters: dose 7.5 mg, route topical
Settings: human, in vivo, topical or ocular, dosed compound id 31, dosed compound name METRONIDAZOLE, gender male and female, regimen Twice daily, study dosing duration 4 days, tissue Plasma, read-out: AUC(0-24)
readoutType: AUC at 96 h (µg·h/mL)
Numeric answer only, unit µg·h/mL assumed.

input: I am curious: what AUC at 96 h value has been reported for Cc1ncc([N+](=O)[O-])n1CCO ?
output: 0.962

* * *

Test: Evaluation of pharmacokinetic parameters for metronidazole following topical administration of 7.5 mg of metronidazole (1 g metronidazole topical lotion) for 4 days to the faces of 8 patients.
Format: ADME, organism-based
Design: dose 7.5 mg, route topical
Details: human, in vivo, topical or ocular, dosed compound id 31, dosed compound name METRONIDAZOLE, gender male and female, regimen Twice daily, sampling time1 5 days, study dosing duration 4 days, tissue Plasma
readoutType: Cmax (ng/mL)
Lab book: enter the figure in ng/mL, no units written.

input: # lookup: Cmax of Cc1ncc([N+](=O)[O-])n1CCO [METRONIDAZOLE]
output: 96
